Biological target: T1, GDF15 (ligand used in the GFRAL/RET cell assays) (UniProt Q99988 197-308, limits assumed)
T1 sequence (looked up): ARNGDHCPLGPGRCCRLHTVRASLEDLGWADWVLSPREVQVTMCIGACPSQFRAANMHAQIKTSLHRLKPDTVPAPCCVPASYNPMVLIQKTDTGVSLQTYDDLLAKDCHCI
Assay: cell-based or functional assay
measure: GDF15-GFRAL RET pERK IC50 (pM)
Numbers only, in pM.

{"columns": ["binder", "GDF15-GFRAL RET pERK IC50 (pM)"],
 "data": [
  ["GDF15 antibody agent Clone E, IgG (antibody, V domains shown) VH: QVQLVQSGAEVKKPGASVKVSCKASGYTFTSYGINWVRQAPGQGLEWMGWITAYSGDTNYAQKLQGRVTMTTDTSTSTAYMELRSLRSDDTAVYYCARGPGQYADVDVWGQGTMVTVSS VL: DIQMTQSPSSVSASVGDRVTITCRASQGISSWLAWYQQKPGKAPKLLIYAASSLQSGVPSRFSGSGSGTDFTLTISSLQPEDFATYYCQQANSFPITFGGGTKVEIKR", 35]
]}

Now take the following binder into account.
## Task GET /values?readout=GDF15-GFRAL RET pERK IC50 (pM)&item= GDF15 antibody agent Clone J, IgG (antibody, V domains shown) VH: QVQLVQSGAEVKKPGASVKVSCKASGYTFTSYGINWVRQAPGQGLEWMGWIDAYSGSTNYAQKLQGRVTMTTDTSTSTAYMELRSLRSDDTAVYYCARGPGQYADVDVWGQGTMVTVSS VL: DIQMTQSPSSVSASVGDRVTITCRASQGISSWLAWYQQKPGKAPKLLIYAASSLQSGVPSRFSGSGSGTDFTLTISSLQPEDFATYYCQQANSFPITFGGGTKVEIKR
## Result 30.3
